# Target under test: T1, human IL-12Rβ2 (human, UniProt Q99665 24-862)
# T1 construct: Expressed on HEK293T cells transiently transfected with a pcDNA3 plasmid (Genscript clone OHu21785); also called hIL-12RB2; IL-12 receptor β2 subunit
# T1 sequence: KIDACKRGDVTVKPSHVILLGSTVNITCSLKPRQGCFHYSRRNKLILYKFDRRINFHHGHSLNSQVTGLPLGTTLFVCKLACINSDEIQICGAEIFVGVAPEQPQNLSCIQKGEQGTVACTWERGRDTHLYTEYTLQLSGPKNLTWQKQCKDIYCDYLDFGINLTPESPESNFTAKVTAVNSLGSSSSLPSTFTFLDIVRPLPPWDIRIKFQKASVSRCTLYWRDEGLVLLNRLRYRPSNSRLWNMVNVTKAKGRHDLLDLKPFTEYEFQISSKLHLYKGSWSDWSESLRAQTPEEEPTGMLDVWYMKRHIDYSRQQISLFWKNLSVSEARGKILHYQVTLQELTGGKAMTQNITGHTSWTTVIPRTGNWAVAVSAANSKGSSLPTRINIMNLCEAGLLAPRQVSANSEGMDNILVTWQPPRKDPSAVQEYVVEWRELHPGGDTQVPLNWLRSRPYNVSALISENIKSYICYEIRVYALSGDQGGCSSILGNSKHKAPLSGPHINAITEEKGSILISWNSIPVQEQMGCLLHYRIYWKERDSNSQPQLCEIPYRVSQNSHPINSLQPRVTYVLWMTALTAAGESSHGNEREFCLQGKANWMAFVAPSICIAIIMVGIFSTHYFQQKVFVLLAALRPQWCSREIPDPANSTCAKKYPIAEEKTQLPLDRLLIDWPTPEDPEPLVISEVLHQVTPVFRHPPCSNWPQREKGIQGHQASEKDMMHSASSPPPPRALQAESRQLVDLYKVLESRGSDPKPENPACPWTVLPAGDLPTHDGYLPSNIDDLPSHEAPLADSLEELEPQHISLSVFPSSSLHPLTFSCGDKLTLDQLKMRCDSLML
# Method: flow cytometry, P.E. on transfected HEK293T cells
Readout name: dMFI

anti-IL-12Rβ2 VHH clone 2CRH33 (VHH, not shown: small tags and cut ends, periplasmic extract; also called 20363) VHH: QVQLQESGGGSVQPGWSLRLTCAASGFTFSTSGMHWFRQAPGKGLEWVSSISSGGGDTYYTDSVKGRITISRDNAKNTLYLQLNDLKSEDTAVYYCSKDPSGATRGQGTQVTVSS : 1120
anti-IL-12Rβ2 VHH clone 3CRHS2 (VHH, not shown: small tags and cut ends, periplasmic extract) VHH: QVQLQESGGGLVQLGGSLTLSCAASGSAALIFLMSWYRQAPGKQRELVAEVSRYGSTTYADSVEGRFTISRDNAKNIVDLQMNSLKPEDTAVYYCKADQYYGDSLRSSWGRGTQVTVSS : 1150
anti-IL-12Rβ2 VHH clone 3CAH32 (VHH, not shown: small tags and cut ends, periplasmic extract; also called 20357) VHH: QVQLQESGGGLVQPGGSLRLSCAASGSILRINLMGWYRQVPGKQRELVAEMSTGGSTTYVDSVKGRFTISRDNAKNTVYLQMNSLKPEDTAVYYCNAKAWQLGRLENDDWGQGTQVTVSS : 742

# input // dMFI lookup, key: anti-IL-12Rβ2 VHH clone 3CRHS100 (VHH, not shown: small tags and cut ends, periplasmic extract) VHH: QVQLQESGGGLVQPGGSLRLSCTASGSIFSIYNMDWYRQAPGNQREWVASITPSGDPYYDDSAKGRFTISRDNAKMTVYLQMNSLKPEDTAVYYCKVPTEKGNYWGQGTQVTVSS
# output 1130

# input Now the same for anti-IL-12Rβ2 VHH clone 3CRH45 (VHH, not shown: small tags and cut ends, periplasmic extract) VHH: QVQLQESGGGLVQPGGSLRLSCAASGFTFSTFGMHWFRQAPGKGLEWVSSIGIIDDNSYYASSVKGRFTISRDNAKNTLYLQMNSLKSEDTAVYYCSKDTTGSSRGQGTQVTVSS
# output 742

All values here come from patent US20260209362A1.
